B1: Zinc finger homeobox protein 3, residues 2244 to 2299; numbered along this chain, Q15911 (parent)
chain: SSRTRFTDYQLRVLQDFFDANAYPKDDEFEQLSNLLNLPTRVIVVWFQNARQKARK

# Variants of: B1
# PROTOCOL_DESCRIPTION: abundance fitness (aPCA) (normalised: wild type 0, dead -1); higher = more abundant; growth selection in yeast, the domain comes from the species named
# PARTICULARS: Homo sapiens
PROPERTY_NAME: abundance fitness

1. N37E -0.034
2. D16I -0.22
3. T7C -0.563
4. T4Y -0.198
5. R12V -0.466
6. L36K -0.95
7. D27S -0.077
8. A22K -0.17
9. L35P -0.918
10. T40A -0.119
11. T4E -0.357
12. F18C -0.174
13. D19G -0.414
14. L11R -0.141
15. Y9A 0.083
16. L36I -0.459
17. R5S 0.2
18. L11I 0.055
19. S1V -0.158
20. E28T -0.236
21. E28H -0.435
22. F6N -0.52
23. E28F -0.603
24. D19V -0.141
25. N37M -0.038
26. A20D -0.102
27. L11F -0.364
28. Q31Y -0.186
29. Q15T -0.113
30. P39E -0.06
31. S2T 0.214
32. F18L -0.19
33. A20W -0.36
34. F29A -0.362
35. L32W -0.56
36. F17H 0.245
